Readings of %Inh for the listed molecules
# Tested on: TLK1
# condition_set: concentration: 1 μM,replicates: in singlicate; n = 1;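 further: KINOMEscan kinase panel screen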

| molecule | u | %Inh |
| --- | --- | --- |
| C[C@@H]1CNc2c(sc3ccc4nc(-c5ccc(O)cc5)ccc4c23)C(=O)N1 | % | 24 |
| CC(C)c1nc(-c2cccc(NS(=O)(=O)c3ccccc3)c2)c(-c2ccnc(Nc3ccc4c(c3)CN(C)CC4)n2)s1 | % | 41 |
| Cc1cccc2c(-c3ccncc3)c(-c3ccc(F)cc3)nn12.Cl | % | 10 |
| Cc1ccc(C(=O)Nc2ccc(Oc3ccc4nc(NC(=O)C5CC5)cn4c3)c(F)c2)c(=O)n1-c1ccccc1 | % | 0 |
| CCCC(=O)Nc1n[nH]c2ncccc12 | % | 0 |
| CC(=O)c1c(-c2ccncc2)[nH]c(-c2ccncc2)c1C | % | 0 |
| FC(F)(F)c1cc(Br)cc(Nc2nccc(-c3cnn4ncccc34)n2)c1 | % | 0 |
| Cn1ccc2ncnc(Oc3ccc(NC(=O)Nc4cccc(C(F)(F)F)c4)c(F)c3)c21 | % | 0 |
| CN1CCN(CCCNc2nccc(-c3c(-c4ccc(F)cc4)nn4cc(C(N)=O)ccc34)n2)CC1 | % | 39 |
| CCN1CCN(CCCC(=O)Nc2n[nH]c3nc(-c4ccc(O)cc4)c(Br)cc23)CC1 | % | 8 |
| CC(C)S(=O)(=O)N1CCN(Cc2ccc3c(c2)nc(NC(=O)c2ccsc2)n3C[C@H](O)c2ccccc2)CC1 | % | 0 |
| Cc1n[nH]c2cc(Nc3ccnc(Nc4cccc(CN5CCOCC5)c4)n3)ccc12 | % | 9 |
| c1ccc(Oc2ccc(Nc3ccnc4ccc(-c5ccccn5)cc34)cc2)cc1 | % | 0 |
| COc1cc(Nc2nccc(N3CCC(NC(=O)c4cccc(C#N)c4)C3)n2)cc(OC)c1OC (stereo not shown) | % | 4 |
| O=C1NCCc2[nH]c(-c3ccncc3)cc21 | % | 31 |
| Cc1ccc(Nc2ccnc(Nc3ccc4c(c3)CS(=O)(=O)C4)n2)cc1O.Cl | % | 30 |

###

# System: PRKD1
# condition_set: concentration: 1 μM,replicates: in singlicate; n = 1
readout: %Inh (%)

| smiles_repr | number |
| --- | --- |
| CC(=O)c1c(-c2ccncc2)[nH]c(-c2ccncc2)c1C | 2 |
| Cc1cccc2c(-c3ccncc3)c(-c3ccc(F)cc3)nn12.Cl | 2 |
| O=C(Nc1cccc(Oc2ccc3nccn3n2)c1)Nc1cccc(C(F)(F)F)c1 | 2 |

###

# System: PLK3
# condition_set: concentration: 1 μM,replicates: in singlicate; n = 1
readout: %Inh

| compound | result |
| --- | --- |
| Nc1nccc(-c2ccc3c(N)n[nH]c3c2)n1 | 0% |
| N#Cc1cccc(C(=O)NC2CCN(c3ccnc(Nc4ccc(F)cc4)n3)C2)c1 (stereo not drawn) | 0% |
| COc1ccc(Nc2nccc(N3CCC(NC(=O)c4cccc(C#N)c4)C3)n2)cc1 (stereo not drawn) | 0% |

###

# Tested on: ROS1
# condition_set: concentration: 1 μM,replicates: in singlicate; n = 1
readout: %Inh (%)

| compound | assayed_target | number |
| --- | --- | --- |
| CC(=O)Nc1ccc(-c2cc3ncnc(SCC(=O)O)c3s2)cc1 | ROS1 | 6 |
| Cc1cccc(-c2nc(Nc3ccncc3)c3sccc3n2)n1 [GW869641] | ROS1 | 21 |
| CC(C)S(=O)(=O)N1CCN(Cc2ccc3c(c2)nc(NC(=O)c2ccsc2)n3C[C@H](O)c2ccccc2)CC1 [GW635815] | ROS1 | 20 |
